Source of measurements: PubChem BioAssay (EPA / NIEHS)

assayed target: guinea pig Serotonin, 5-Hydroxytryptamine Receptor 4 (5HT4), HTR4 (gene 100135548)
assay explanation: NVS_GPCR_g5HT4: NovaScreen (NVS) G Protein-Coupled Receptor Assay for guinea pig Serotonin, 5-Hydroxytryptamine Receptor 4 (5HT4) (AID 2283294)
Procedure: NVS_GPCR_g5HT4 is a biochemical, single-readout assay that uses extracted gene-proteins from Guinea pig striatal membranes in a tissue-based cell-free assay. Measurements were taken 1 hour after chemical dosing in a 48-well plate.NVS_GPCR_g5HT4 is one of one assay component(s) measured or calculated from the NVS_GPCR_g5HT4 assay. […] This assay endpoint, NVS_GPCR_g5HT4, was analyzed in the positive analysis fitting direction relative to DMSO as the negative control and baseline of activity. […]
Results filed as inconclusive are left out. Active and inactive are the calls of the source. How the source made its calls: active means hit-call score of the fitted dose curve at least 0.9, where 1 is the maximum; inconclusive means response in the unintended direction; inactive means score below 0.9.
measured attribute: AC50

// AC50 value for COc1ccc2cc(S(=O)(=O)N[C@H](CC(=O)N[C@H](Cc3ccc(CN4[C@H](C)CCC[C@@H]4C)cc3)C(=O)N(C)C(C)C)c3ccc4c(c3)OCO4)ccc2c1 : 16.8 µM (active)

// AC50 value for O=c1[nH]sc2ccccc12 : 33.7 µM (active)

// AC50 value for CCN(Cc1cccnc1)C(=O)c1cccc(Cl)c1[C@]1(C)C(=O)N(Cc2ccc(OC)cc2OC)c2ccc(Cl)cc21 : 15 µM (active)

// AC50 value for CC/C(=C(/CC)c1ccc(O)cc1)c1ccc(O)cc1 : 39.4 µM (active)

// AC50 value for NCc1cccc(C2CCN(C(=O)c3ccc(C#Cc4ccccc4F)o3)CC2)c1 : 17.6 µM (active)

// AC50 value for Clc1cc(Cl)c2c(c1)N=C1CCCCCN1C2 : 5.45 µM (active)

// AC50 value for CN(C)C(=O)C1(N2CCCCC2)CCN(CC[C@@]2(c3ccc(Cl)c(Cl)c3)CN(C(=O)c3ccccc3)CCO2)CC1 : 23.6 µM (active)

// AC50 value for CN(C[C@@H](CC[N+]12CCC(C3CCCCC3)(CC1)CC2)c1ccc(Cl)c(Cl)c1)C(=O)c1cc(C(F)(F)F)cc(C(F)(F)F)c1 : 8.02 µM (active)

// AC50 value for CN(C)c1ccc(C(=C2C=CC(=[N+](C)C)C=C2)c2ccc(N(C)C)cc2)cc1 : 7.22 µM (active)

// AC50 value for O=C1c2ccccc2C(=O)N1CCc1noc(-c2ccc(CN3CCCCCC3)s2)n1 : 4 µM (active)

// AC50 value for Cc1cc2c(cc1C(F)(F)F)N(C(=O)Nc1ccc(Oc3cccnc3C)nc1)CC2 : 5.92 µM (active)

// AC50 value for COc1cc(C(=O)NC2CCN(C)CC2)ccc1Nc1ncc2c(n1)N(C1CCCC1)CC(F)(F)C(=O)N2C : 8.4 µM (active)
